System Under Test: XIAP-BIR2 (Homo sapiens (Human), UniProt P98170)
Sequence (P98170 124-240): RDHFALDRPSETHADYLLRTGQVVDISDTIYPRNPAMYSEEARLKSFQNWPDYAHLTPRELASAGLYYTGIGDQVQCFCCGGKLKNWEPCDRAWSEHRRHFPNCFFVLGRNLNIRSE
Protocol Description: BIR binding assay (FRET competition), XIAP BIR2
Run Parameters: FRET competition binding
Experimental: The BIR domain binding assays are FRET based competition assays that utilize His-tagged versions of each of the BIR2 and BIR3 domains from cIAP1, cIAP2, and XIAP (each domain assayed separately) each at a custom optimal concentration and a probe, 200 nM SMAC/DIABLO peptide AVPIAQKSE labelled with AlexaFluor647 (part #crb 1110326h, Discovery Peptides). […]
Measured Endpoint: XIAP BIR2 (pIC50)

1. C[C@@H]1CN(CC(=O)N2CC(C)(C)c3c2cc(Cc2ccc(F)cc2)c(=O)n3C)[C@@H](CN2CCO[C@H](COc3ccc(Cc4ccc(OC[C@@H]5CN(C[C@H]6CN[C@H](C)CN6CC(=O)N6CC(C)(C)c7c6cc(Cc6ccc(F)cc6)c(=O)n7C)CCO5)cc4)cc3)C2)CN1 ... ++ (5.00<pIC50<=5.50)
2. C[C@@H]1CN(CC(=O)N2CC(C)(C)c3[nH]c(=O)c(Cc4ccc(F)cc4)cc32)[C@@H](CN2CCO[C@H](COc3ccc(-c4ccccc4)c(OC[C@@H]4CN(C[C@H]5CN[C@H](C)CN5CC(=O)N5CC(C)(C)c6[nH]c(=O)c(Cc7ccc(F)cc7)cc65)CCO4)c3)C2)CN1 ... ++ (5.00<pIC50<=5.50)
